Source of measurements: PubChem BioAssay (NCI)

System: BT-549 breast
Procedure Details: NCI tumour cell line growth inhibition, 48 h
Experimental Endpoint: TGI

Compound	Endpoint Value
COc1ccc2c(cnc3c4cc(OC)c(OC)cc4ccc23)c1	> 100 µM
O=C(CCC1OCCO1)Nc1cc(NCc2ccccc2)ccc1OCc1ccccc1	> 100 µM
O=C1O[C@H](c2ccc3c(c2)OCO3)[C@H]2CO[C@@H](c3ccc4c(c3)OCO4)[C@@H]12	> 100 µM
CC(C)=CCNc1ncnc2c1ncn2CCC#N	> 100 µM
CCSc1nc(SCC)c2cn[nH]c2n1	> 100 µM
CC(=O)[C@@]1(O)CC[C@H]2[C@@H]3C[C@H](C)C4=CC(=O)C=C[C@]4(C)[C@@]3(F)[C@@H](O)C[C@@]21C	> 100 µM
CC(C)(C)OC(=O)NCCCNC1(c2cc3ccccc3s2)CCCCC1	27 µM
CCOC(=O)NC(Nc1ccc([N+](=O)[O-])cc1)(C(F)(F)F)C(F)(F)F	> 100 µM
CN1C2CCC1CC(C)(O)C2 (stereo unspecified)	> 100 µM
CC(C(O)Cc1ccccc1)N(C)N=Nc1ccc([N+](=O)[O-])cc1 (stereo unspecified)	40.4 µM
O=c1cc(NC2CCN(CCCc3ccccc3)CC2)c2cc(Cl)ccc2o1	26.8 µM

###

Test system: RXF 393 renal
Procedure Details: NCI tumour cell line growth inhibition, 48 h
Experimental Endpoint: log10(TGI) (log10 of the value in µM)

Compound	Endpoint Value
CC(C)(C[C@H]1CN(S(=O)(=O)c2cccc(C(F)(F)F)c2)c2cc(-c3cc(F)cc(OC(F)F)c3)ccc2O1)C(=O)O	1.38
COc1ccc(C2COc3cc(O)c(O)cc3C2)cc1 (stereo unspecified)	1.31
COc1ccc(CC2NCCc3cc(OC)c(OC)cc32)cc1Br (stereo unspecified)	1.77
O=C(c1ccccc1)C1OC12C(=O)Nc1ccccc12 (stereo unspecified)	1.74
COc1cc(C(=O)c2cc(C)c3[nH]c4ccc(C)cc4c3c2C)cc(OC)c1OC	0.68

###

Tested on: EKVX NSCLC
Procedure Details: NCI tumour cell line growth inhibition, 48 h

Molecule	TGI
S=C(Nc1ccc2c(c1)oc1ccccc12)c1cccnc1	> 100 µM
CN(C)c1cc[c]([Sn]([c]2ccc(N(C)C)cc2)([c]2ccc(N(C)C)cc2)[c]2ccc(N(C)C)cc2)cc1	28 µM
O=C(Nc1c(Cl)cc([N+](=O)[O-])cc1Cl)C(=O)C(C1OC(=O)c2ccccc21)[N+](=O)[O-] (centres undefined)	> 100 µM
O=c1c(C(c2ccc(Cl)cc2)c2c(O)c3ccccc3n(-c3ccccc3)c2=O)c(O)c2ccccc2n1-c1ccccc1	91.1 µM
COc1ccc(/C=C/c2cc(OC)cc(=O)o2)cc1	> 100 µM
NC(CCC(=O)NC(CSCC1C(=O)Nc2ccccc21)C(=O)NCC(=O)O)C(=O)O (centres undefined)	31.2 µM
CCN1CCC(O)(/C=C/c2ccc(C)cc2C)C(C(=O)/C=C/c2ccc(C)cc2C)C1 (centres undefined)	> 26 µM
O=c1oc2ccc([N+](=O)[O-])cc2c(Nc2ccc3c(c2)Oc2ccccc2O3)c1[N+](=O)[O-]	> 100 µM
CCSc1nc(SCC)c2cn[nH]c2n1	> 100 µM

###

Test system: UACC-257 melanoma
Procedure Details: NCI tumour cell line growth inhibition, 48 h
Experimental Endpoint: TGI

Compound	Experimental Endpoint	Endpoint Value
CC12CCC(O)CC1CCC1C2CCC2(C)C(C(=O)CC(O)C(F)(F)F)CCC12 (stereo unspecified)	TGI	> 91.6 µM
CCC/C(Cl)=N\OC(=O)Nc1ccc(OC(F)(F)F)cc1	TGI	39.8 µM
O=C1CC2CCCC23CC2(CCN13)OCCO2 (stereo unspecified)	TGI	> 100 µM
O=C1CCCC[C@H]1[C@H]1CCC[C@@H]([C@H]2CCCCC2=O)C1=O	TGI	> 100 µM
O=C1CCC(O)=C1N=Nc1ccccc1	TGI	> 100 µM
Cn1c(COC(=O)Nc2ccccc2)c(COC(=O)Nc2ccccc2)c2ccc3cc(Cl)c(Cl)cc3c21	TGI	21.6 µM
